Values were extracted from the pKa sets of Baltruschat and Czodrowski (2020).

Measurement context: acidic group
Property measured: pKa
Format: numeric value only, no unit, no commentary.

Please review the following examples before continuing.
C[n+]1ccsc1N :: 9.65
Cc1cc2ccccc2c(C(=O)O)c1C :: 3.33
O=C1COC(=O)C1Br (configuration not stated) :: 2.23
C[N+](C)(C)CCS :: 7.98
O=C1O[C@@H]([C@H](O)[C@@H](O)[C@@H](O)CO)C([O-])=C1O :: 12

Query block: # return recorded pKa for entry Fc1ccc(NC(=S)c2ccc(Cl)cc2)cc1
Result block: 10.4

Query block: # return recorded pKa for entry CCc1nnn[nH]1
Result block: 5.59
